The values you see were collected from PubChem BioAssay AID1040.

System name: Neuropeptide Y receptor type 1 (Homo sapiens) (UniProt P25929)
Sequence (P25929 whole entry, looked up): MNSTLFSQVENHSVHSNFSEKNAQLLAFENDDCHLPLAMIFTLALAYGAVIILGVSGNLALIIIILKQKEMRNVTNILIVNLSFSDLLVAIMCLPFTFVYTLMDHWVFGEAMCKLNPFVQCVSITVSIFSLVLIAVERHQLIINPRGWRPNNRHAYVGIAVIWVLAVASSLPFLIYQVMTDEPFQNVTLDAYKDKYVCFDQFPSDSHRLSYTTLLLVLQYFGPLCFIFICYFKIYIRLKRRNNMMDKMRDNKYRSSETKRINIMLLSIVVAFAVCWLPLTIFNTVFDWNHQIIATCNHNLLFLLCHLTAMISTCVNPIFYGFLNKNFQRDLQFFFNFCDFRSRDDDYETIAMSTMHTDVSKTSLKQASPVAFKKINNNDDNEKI
Measurement protocol: blockers of human neuropeptide Y Y1 receptor – cell-based, primary screen (AID 1040)
Setup conditions: HEK293-CNG Y1 cells, membrane potential fluorescence; at 3.6 µM; NPY at EC95, then isoproterenol
About 2,000 (1%) of roughly 200,000 compounds were called active.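 Rule for the calls: active = inhibition above the campaign mean inhibition of all tested compounds plus 3 SD (cut at about 20% in these data); inactive = the rest.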 The sample as a whole holds a higher share of actives than the screen did.
Hello, when you answer, please use one of the following outcomes: active, inactive

Query: Dear all, I need the recorded test outcome for CCc1cc2c(NC3CCCC3)ncnc2s1 , thank you.
Reply: inactive

Query: What do you have for NS(=O)(=O)c1ccc(N=Cc2ccc(Br)s2)cc1 ?
Reply: inactive

Query: What do you have for O=c1c2ccccc2nc2n1C1(CCCCC1)Cc1ccccc1-2 ?
Reply: active

Query: What do you have for CCC1CCCCN1C(=O)CSc1nc2c(c(=O)n(C)c(=O)n2C)n1C (stereo unspecified) ?
Reply: inactive

Query: What do you have for Cc1nc([N+](=O)[O-])c(NCCCO)n1Cc1ccccc1 ?
Reply: inactive

Query: What do you have for O=C(Nc1cccc(F)c1)c1ccc(S(=O)(=O)N2CCCC2)cc1 ?
Reply: inactive

Query: What do you have for CCOC(=O)N1CCN(S(=O)(=O)c2ccc(C(=O)Nc3ccc(F)cc3F)cc2)CC1 ?
Reply: active

Query: What do you have for O=C1c2cccc3cccc(c23)C(=O)N1CCCCCc1n[nH]c(=S)o1 ?
Reply: inactive

Query: What do you have for O=C(C1CCCN1S(=O)(=O)c1ccc(Br)cc1)N1CCOCC1 (stereo unspecified) ?
Reply: inactive

Query: What do you have for N=c1c2c(-c3ccccc3)c(-c3ccccc3)n(Cc3ccccc3)c2ncn1CCCO ?
Reply: active

Query: What do you have for COc1ccccc1CNC(=O)c1cc(=O)c2ccccc2o1 ?
Reply: inactive
